FYI, the data here is from patent US20220177587A1.

This section presents binders with their documented MFI at 33.3 nM values.
Target: CD28 (human) (UniProt P10747)
Assay: flow cytometry, Jurkat/IL2 reporter cells (endogenous CD28)
Lab book: enter the figure in MFI, no units written.

Example cases with answers are listed next.
variant CD80 IgV-Fc Y31S/E35D/M47L/T79L/E88G (Fc fusion) VIHVTKEVKEVATLSCGHNVSVEELAQTRISWQKDKKMVLTMMSGDLNIWPEYKNRTIFDITNNLSIVILALRPSDEGLYECVVLKYGKDAFKREHLAEVTLSVKAD; 278
variant CD80 IgV-Fc Q33L/E35D/M47V/L85Q (Fc fusion) VIHVTKEVKEVATLSCGHNVSVEELAQTRIYWLKDKKMVLTMMSGDVNIWPEYKNRTIFDITNNLSIVILALRPSDEGTYECVVQKYEKDAFKREHLAEVTLSVKAD; 268
variant CD80 IgV-Fc A26E/Q33R/E35D/M47L/L85Q/K86E (Fc fusion) VIHVTKEVKEVATLSCGHNVSVEELEQTRIYWRKDKKMVLTMMSGDLNIWPEYKNRTIFDITNNLSIVILALRPSDEGTYECVVQEYEKDAFKREHLAEVTLSVKAD; 275
variant CD80 IgV-Fc V22A/E35D/V68E/A71D (Fc fusion) VIHVTKEVKEVATLSCGHNVSAEELAQTRIYWQKDKKMVLTMMSGDMNIWPEYKNRTIFDITNNLSIEILDLRPSDEGTYECVVLKYEKDAFKREHLAEVTLSVKAD; 14000
variant CD80 IgV-Fc E7D/E35D/M47I/L97Q (Fc fusion) VIHVTKDVKEVATLSCGHNVSVEELAQTRIYWQKDKKMVLTMMSGDINIWPEYKNRTIFDITNNLSIVILALRPSDEGTYECVVLKYEKDAFKREHQAEVTLSVKAD; 273

query: Note MFI at 33.3 nM for the binder shown: variant CD80 IgV-Fc A26E/Q33L/E35D/M47L (Fc fusion) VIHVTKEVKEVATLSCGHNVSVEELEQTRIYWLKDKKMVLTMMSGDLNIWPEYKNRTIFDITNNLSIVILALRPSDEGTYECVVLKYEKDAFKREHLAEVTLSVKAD
result: 271

query: Note MFI at 33.3 nM for the binder shown: variant CD80 IgV-Fc E35D/D46E/M47V/L97Q (Fc fusion) VIHVTKEVKEVATLSCGHNVSVEELAQTRIYWQKDKKMVLTMMSGEVNIWPEYKNRTIFDITNNLSIVILALRPSDEGTYECVVLKYEKDAFKREHQAEVTLSVKAD
result: 371

query: Note MFI at 33.3 nM for the binder shown: variant CD80 IgV-Fc Q33L/E35D/M47I/T62N/L85Q (Fc fusion) VIHVTKEVKEVATLSCGHNVSVEELAQTRIYWLKDKKMVLTMMSGDINIWPEYKNRTIFDINNNLSIVILALRPSDEGTYECVVQKYEKDAFKREHLAEVTLSVKAD
result: 284

query: Note MFI at 33.3 nM for the binder shown: variant CD80 IgV-Fc H18Y/A26E/Q33L/E35D/M47L/L85Q (Fc fusion) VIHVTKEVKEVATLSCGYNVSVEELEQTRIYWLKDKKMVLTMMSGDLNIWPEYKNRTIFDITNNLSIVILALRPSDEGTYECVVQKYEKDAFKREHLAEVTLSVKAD
result: 272

query: Note MFI at 33.3 nM for the binder shown: variant CD80 IgV-Fc A26E/Q33R/E35D/M47L/L85Q (Fc fusion) VIHVTKEVKEVATLSCGHNVSVEELEQTRIYWRKDKKMVLTMMSGDLNIWPEYKNRTIFDITNNLSIVILALRPSDEGTYECVVQKYEKDAFKREHLAEVTLSVKAD
result: 264

query: Note MFI at 33.3 nM for the binder shown: variant CD80 IgV-Fc H18Y/Q33L/E35D/M47I (Fc fusion) VIHVTKEVKEVATLSCGYNVSVEELAQTRIYWLKDKKMVLTMMSGDINIWPEYKNRTIFDITNNLSIVILALRPSDEGTYECVVLKYEKDAFKREHLAEVTLSVKAD
result: 295
